# Test system: AGS cell strain
# Test: Effect on cell cycle (propidium iodide staining, FACS, sub G1)
# Assay type: cell-based
# Reported Conditions: mimic 10 nM, 10 uM 5-FU 24 h after transfection, then 48 hours, relative to scrambled control (=1)
Recorded Relative Sub G1 values for a group of substances are listed next.
Measurement Label: Relative Sub G1

# Substance, Result
rows = [
    ("BART22-5p: EBV BART miRNA mimic, double stranded RNA; sense SEQ NO: 53, antisense SEQ NO: 54 (sense UGCUAGACCCUGGAGUUGAACC; antisense GGUUCAACUCCAGGGUCUAGCA; chemistry not given here)", 0.9654),
    ("BART12-5p: EBV BART miRNA mimic, double stranded RNA; sense SEQ NO: 65, antisense SEQ NO: 66 (sense ACCCGCCCAUCACCACCGGAC; antisense GUCCGGUGGUGAUGGGCGGGU; chemistry not given here)", 1.135),
    ("BART14-5p: EBV BART miRNA mimic, double stranded RNA; sense SEQ NO: 81, antisense SEQ NO: 82 (sense UACCCUACGCUGCCGAUUUACA; antisense UGUAAAUCGGCAGCGUAGGGUA; chemistry not given here)", 0.9076),
    ("BART1-3p: EBV BART miRNA mimic, double stranded RNA; sense SEQ NO: 11, antisense SEQ NO: 12 (sense UAGCACCGCUAUCCACUAUGUC; antisense GACAUAGUGGAUAGCGGUGCUA; chemistry not given here)", 0.7947),
    ("BART1-5p: EBV BART miRNA mimic, double stranded RNA; sense SEQ NO: 9, antisense SEQ NO: 10 (sense UCUUAGUGGAAGUGACGUGCUGUG; antisense CACAGCACGUCACUUCCACUAAGA; chemistry not given here)", 0.8028),
    ("BART15-3p: EBV BART miRNA mimic, double stranded RNA; sense SEQ NO: 15, antisense SEQ NO: 16 (sense GUCAGUGGUUUUGUUUCCUUGA; antisense UCAAGGAAACAAAACCACUGAC; chemistry not given here)", 2.508),
    ("BART3-3p: EBV BART miRNA mimic, double stranded RNA; sense SEQ NO: 3, antisense SEQ NO: 4 (sense CGCACCACUAGUCACCAGGUGU; antisense ACACCUGGUGACUAGUGGUGCG; chemistry not given here)", 0.9648),
    ("BART9-3p: EBV BART miRNA mimic, double stranded RNA; sense SEQ NO: 51, antisense SEQ NO: 52 (sense UAACACUUCAUGGGUCCCGUAGU; antisense ACUACGGGACCCAUGAAGUGUUA; chemistry not given here)", 0.8669),
    ("BART18-3p: EBV BART miRNA mimic, double stranded RNA; sense SEQ NO: 39, antisense SEQ NO: 40 (sense UAUCGGAAGUUUGGGCUUCGUC; antisense GACGAAGCCCAAACUUCCGAUA; chemistry not given here)", 0.9963),
    ("BART21-3p: EBV BART miRNA mimic, double stranded RNA; sense SEQ NO: 35, antisense SEQ NO: 36 (sense CUAGUUGUGCCCACUGGUGUUU; antisense AAACACCAGUGGGCACAACUAG; chemistry not given here)", 0.965),
    ("BART4-5p: EBV BART miRNA mimic, double stranded RNA; sense SEQ NO: 5, antisense SEQ NO: 6 (sense GACCUGAUGCUGCUGGUGUGCU; antisense AGCACACCAGCAGCAUCAGGUC; chemistry not given here)", 1.236),
    ("BART16-3p: EBV BART miRNA mimic, double stranded RNA; sense SEQ NO: 23, antisense SEQ NO: 24 (sense AUCACCACCCUCUAUCCAUAU; antisense AUAUGGAUAGAGGGUGGUGAU; chemistry not given here)", 0.9852),
    ("BART18-5p: EBV BART miRNA mimic, double stranded RNA; sense SEQ NO: 37, antisense SEQ NO: 38 (sense UCAAGUUCGCACUUCCUAUACA; antisense UGUAUAGGAAGUGCGAACUUGA; chemistry not given here)", 0.9828),
    ("BART7-5p: EBV BART miRNA mimic, double stranded RNA; sense SEQ NO: 41, antisense SEQ NO: 42 (sense CCUGGACCUUGACUAUGAAACA; antisense UGUUUCAUAGUCAAGGUCCAGG; chemistry not given here)", 0.9918),
    ("BART13-5p: EBV BART miRNA mimic, double stranded RNA; sense SEQ NO: 77, antisense SEQ NO: 78 (sense AACCGGCUCGUGGCUCGUACAG; antisense CUGUACGAGCCACGAGCCGGUU; chemistry not given here)", 1.178),
]

---

# System: AGS cell strain
# Test: Measurement of apoptosis (Annexin V staining, FACS)
# Assay type: cell-based
# Reported Conditions: AGS; mimic 10 nM, 10 uM 5-FU 24 h after transfection, then 48 hours; Annexin V; relative to scrambled control (=1); n=9
Measurement Label: Relative Apoptotic cell

# Substance, Study System, Measurement Label, Result
measured = [
    ("BART5-3p: EBV BART miRNA mimic, double stranded RNA; sense SEQ NO: 19, antisense SEQ NO: 20 (sense GUGGGCCGCUGUUCACCU; antisense AGGUGAACAGCGGCCCAC; chemistry not given here)", "AGS cell strain", "Relative Apoptotic cell", 1.17),
    ("BART2-3p: EBV BART miRNA mimic, double stranded RNA; sense SEQ NO: 87, antisense SEQ NO: 88 (sense AAGGAGCGAUUUGGAGAAAAUAAA; antisense UUUAUUUUCUCCAAAUCGCUCCUU; chemistry not given here)", "AGS cell strain", "Relative Apoptotic cell", 1.062),
    ("BART19-3p: EBV BART miRNA mimic, double stranded RNA; sense SEQ NO: 71, antisense SEQ NO: 72 (sense UUUUGUUUGCUUGGGAAUGCU; antisense AGCAUUCCCAAGCAAACAAAA; chemistry not given here)", "AGS cell strain", "Relative Apoptotic cell", 0.9742),
    ("BART1-3p: EBV BART miRNA mimic, double stranded RNA; sense SEQ NO: 11, antisense SEQ NO: 12 (sense UAGCACCGCUAUCCACUAUGUC; antisense GACAUAGUGGAUAGCGGUGCUA; chemistry not given here)", "AGS cell strain", "Relative Apoptotic cell", 0.9231),
]

---

# System: AGS cell strain
# Test: Effect on cell cycle (propidium iodide staining, FACS, sub G1)
# Format: cell-based
# Reported Conditions: mimic 10 nM, 10 uM 5-FU 24 h after transfection, then 48 hours, relative to scrambled control (=1)
Quick reference for Relative Sub G1 among some substances

# Substance, Relative Sub G1
data = [
    ("BART5-3p: EBV BART miRNA mimic, double stranded RNA; sense SEQ NO: 19, antisense SEQ NO: 20 (sense GUGGGCCGCUGUUCACCU; antisense AGGUGAACAGCGGCCCAC; chemistry not given here)", 0.9486),
    ("BART3-5p: EBV BART miRNA mimic, double stranded RNA; sense SEQ NO: 1, antisense SEQ NO: 2 (sense ACCUAGUGUUAGUGUUGUGCU; antisense AGCACAACACUAACACUAGGU; chemistry not given here)", 0.8224),
    ("BART19-5p: EBV BART miRNA mimic, double stranded RNA; sense SEQ NO: 69, antisense SEQ NO: 70 (sense ACAUUCCCCGCAAACAUGACAUG; antisense CAUGUCAUGUUUGCGGGGAAUGU; chemistry not given here)", 1.349),
    ("BART7-3p: EBV BART miRNA mimic, double stranded RNA; sense SEQ NO: 43, antisense SEQ NO: 44 (sense CAUCAUAGUCCAGUGUCCAGGG; antisense CCCUGGACACUGGACUAUGAUG; chemistry not given here)", 0.9393),
]

---

# Relative Cell Growth per entry
# Test system: AGS cell strain
# Test: Cell growth test (CCK-8 assay) after transfection of BART miRNA mimics
# Type: cell-based
# Reported Conditions: mimic 10 nM, 72 hours after transfection, relative to scrambled control (=1), n=9

# Substance, Relative Cell Growth
records = [
    ("BART10-5p: EBV BART miRNA mimic, double stranded RNA; sense SEQ NO: 57, antisense SEQ NO: 58 (sense GCCACCUCUUUGGUUCUGUACA; antisense UGUACAGAACCAAAGAGGUGGC; chemistry not given here)", 1.646),
    ("BART22-5p: EBV BART miRNA mimic, double stranded RNA; sense SEQ NO: 53, antisense SEQ NO: 54 (sense UGCUAGACCCUGGAGUUGAACC; antisense GGUUCAACUCCAGGGUCUAGCA; chemistry not given here)", 1.529),
    ("BART12-3p: EBV BART miRNA mimic, double stranded RNA; sense SEQ NO: 67, antisense SEQ NO: 68 (sense UCCUGUGGUGUUUGGUGUGGUU; antisense AACCACACCAAACACCACAGGA; chemistry not given here)", 1.102),
    ("BART11-5p: EBV BART miRNA mimic, double stranded RNA; sense SEQ NO: 61, antisense SEQ NO: 62 (sense UCAGACAGUUUGGUGCGCUAGUUG; antisense CAACUAGCGCACCAAACUGUCUGA; chemistry not given here)", 1.08),
    ("BART19-3p: EBV BART miRNA mimic, double stranded RNA; sense SEQ NO: 71, antisense SEQ NO: 72 (sense UUUUGUUUGCUUGGGAAUGCU; antisense AGCAUUCCCAAGCAAACAAAA; chemistry not given here)", 1.237),
    ("BART1-3p: EBV BART miRNA mimic, double stranded RNA; sense SEQ NO: 11, antisense SEQ NO: 12 (sense UAGCACCGCUAUCCACUAUGUC; antisense GACAUAGUGGAUAGCGGUGCUA; chemistry not given here)", 1.201),
    ("BART15-3p: EBV BART miRNA mimic, double stranded RNA; sense SEQ NO: 15, antisense SEQ NO: 16 (sense GUCAGUGGUUUUGUUUCCUUGA; antisense UCAAGGAAACAAAACCACUGAC; chemistry not given here)", 0.5676),
    ("BART20-5p: EBV BART miRNA mimic, double stranded RNA; sense SEQ NO: 73, antisense SEQ NO: 74 (sense UAGCAGGCAUGUCUUCAUUCC; antisense GGAAUGAAGACAUGCCUGCUA; chemistry not given here)", 1.245),
]
